- Test system: 521955-158-R6-J3-PDC complex spheroid growth, % test/control
- assay_text: Anticancer human tumor 521955-158-R6-J3-PDC patient-derived pancreatic carcinoma cell line growth inhibition [Asc]
- test_conditions: second compound 0.3 µM; first compound 0.316 µM; active compounds read low
Known viability, T/C of a selection of compounds
Quick note: give the figure in %, leave out the unit.

>  <compound>
C=CC(=O)N1CCN(c2nc(=O)n(-c3c(C)ccnc3C(C)C)c3nc(-c4c(O)cccc4F)c(F)cc23)C(C)C1 (centres undefined) + CCN1C(C(=O)NC23CCC(C(=O)O)(CC2)CC3)C(c2cccc(Cl)c2F)C2(C(=O)Nc3cc(Cl)ccc32)C12CCCCC2

>  <unit_info>
%

>  <viability, T/C>
107

$$$$
>  <compound>
COc1c(OCCCN2CCOCC2)ccc2c3n(c(=NC(=O)c4cnc(N)nc4)nc12)CCN3 + CCN1C(C(=O)NC23CCC(C(=O)O)(CC2)CC3)C(c2cccc(Cl)c2F)C2(C(=O)Nc3cc(Cl)ccc32)C12CCCCC2

>  <unit_info>
%

>  <viability, T/C>
56

$$$$
>  <compound>
C=C(F)C(=O)N1CCN(c2nc(OCC3CCCN3C)nc3c2CCN(c2cccc4cccc(Cl)c24)C3)CC1CC#N (centres undefined) + CCN1C(C(=O)NC23CCC(C(=O)O)(CC2)CC3)C(c2cccc(Cl)c2F)C2(C(=O)Nc3cc(Cl)ccc32)C12CCCCC2

>  <unit_info>
%

>  <viability, T/C>
96

$$$$

Kindly consider the entry below.
Problem: Param item = O=C(c1ccc(F)c(F)c1Nc1ccc(I)cc1F)N1CC(O)([C@@H]2CCCCN2)C1 + CCN1C(C(=O)NC23CCC(C(=O)O)(CC2)CC3)C(c2cccc(Cl)c2F)C2(C(=O)Nc3cc(Cl)ccc32)C12CCCCC2 ; retrieve measured viability, T/C.
Solution: 63.2

---

- System: 521955-158-R6-J3-PDC complex spheroid growth, % test/control
- assay_text: Anticancer human tumor 521955-158-R6-J3-PDC cell line growth inhibition [Asc];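 note: spheroids exposed to compounds for 7 days; 100% = DMSO vehicle control wells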
- test_conditions: second compound 0.316 µM; first compound 0.0316 µM; active compounds read low
// assign Met if viability, T/C falls strictly below 60%, else Not met (ties count as Not met)

>  <compound>
NC1CCC(NC2CC2c2ccccc2)CC1 (stereo not drawn) + Cc1c(S(C)(=O)=O)c(-c2cc(F)cc(N3CCN(c4ccc(NS(=O)(=O)c5ccc(NC(CCN6CCC(C(=O)OCCCP(=O)(O)O)CC6)CSc6ccccc6)c(S(=O)(=O)C(F)(F)F)c5)cc4)CC3)c2)c(-c2ccc(Cl)cc2)n1C(C)C

>  <label>
Met

$$$$

Problem: Could you please tell me whether viability, T/C recorded for O=C(c1cc(Cc2n[nH]c(=O)c3ccccc23)ccc1F)N1CCN(C(=O)C2CC2)CC1 + CNC(C)C(=O)NC1CN(S(=O)(=O)c2cccc(S(=O)(=O)N3CCC4CCC(C(=O)NC(c5ccccc5)c5ccccc5)N4C(=O)C(NC(=O)C(C)NC)C3)c2)CCC2CCC(C(=O)NC(c3ccccc3)c3ccccc3)N2C1=O is less than 60%?
Solution: Not met

Problem: Could you please tell me whether viability, T/C recorded for O=C(c1ccc(F)c(F)c1Nc1ccc(I)cc1F)N1CC(O)([C@@H]2CCCCN2)C1 + CNC(C)C(=O)NC1CN(S(=O)(=O)c2cccc(S(=O)(=O)N3CCC4CCC(C(=O)NC(c5ccccc5)c5ccccc5)N4C(=O)C(NC(=O)C(C)NC)C3)c2)CCC2CCC(C(=O)NC(c3ccccc3)c3ccccc3)N2C1=O is less than 60%?
Solution: Not met

Problem: Could you please tell me whether viability, T/C recorded for C=CC(=O)N1CCN(c2nc(=O)n(-c3c(C)ccnc3C(C)C)c3nc(-c4c(O)cccc4F)c(F)cc23)C(C)C1 (stereo not drawn) + CNC(C)C(=O)NC1CN(S(=O)(=O)c2cccc(S(=O)(=O)N3CCC4CCC(C(=O)NC(c5ccccc5)c5ccccc5)N4C(=O)C(NC(=O)C(C)NC)C3)c2)CCC2CCC(C(=O)NC(c3ccccc3)c3ccccc3)N2C1=O is less than 60%?
Solution: Not met

Problem: Could you please tell me whether viability, T/C recorded for COc1c(OCCCN2CCOCC2)ccc2c3n(c(=NC(=O)c4cnc(N)nc4)nc12)CCN3 + CNC(C)C(=O)NC1CN(S(=O)(=O)c2cccc(S(=O)(=O)N3CCC4CCC(C(=O)NC(c5ccccc5)c5ccccc5)N4C(=O)C(NC(=O)C(C)NC)C3)c2)CCC2CCC(C(=O)NC(c3ccccc3)c3ccccc3)N2C1=O is less than 60%?
Solution: Met

Problem: Could you please tell me whether viability, T/C recorded for C=CC(=O)N1CCN(c2nc(=O)n(-c3c(C)ccnc3C(C)C)c3nc(-c4c(O)cccc4F)c(F)cc23)C(C)C1 (stereo not drawn) + Cc1c(S(C)(=O)=O)c(-c2cc(F)cc(N3CCN(c4ccc(NS(=O)(=O)c5ccc(NC(CCN6CCC(C(=O)OCCCP(=O)(O)O)CC6)CSc6ccccc6)c(S(=O)(=O)C(F)(F)F)c5)cc4)CC3)c2)c(-c2ccc(Cl)cc2)n1C(C)C is less than 60%?
Solution: Met

Problem: Could you please tell me whether viability, T/C recorded for Cn1ncnc1[C@H]1c2n[nH]c(=O)c3cc(F)cc(c23)N[C@@H]1c1ccc(F)cc1 + CNC(C)C(=O)NC1CN(S(=O)(=O)c2cccc(S(=O)(=O)N3CCC4CCC(C(=O)NC(c5ccccc5)c5ccccc5)N4C(=O)C(NC(=O)C(C)NC)C3)c2)CCC2CCC(C(=O)NC(c3ccccc3)c3ccccc3)N2C1=O is less than 60%?
Solution: Not met

Problem: Could you please tell me whether viability, T/C recorded for CCN1CCN(Cc2ccc(Nc3ncc(F)c(-c4cc(F)c5nc(C)n(C(C)C)c5c4)n3)nc2)CC1 + Cc1c(S(C)(=O)=O)c(-c2cc(F)cc(N3CCN(c4ccc(NS(=O)(=O)c5ccc(NC(CCN6CCC(C(=O)OCCCP(=O)(O)O)CC6)CSc6ccccc6)c(S(=O)(=O)C(F)(F)F)c5)cc4)CC3)c2)c(-c2ccc(Cl)cc2)n1C(C)C is less than 60%?
Solution: Met

Problem: Could you please tell me whether viability, T/C recorded for O=C(c1cc(Cc2n[nH]c(=O)c3ccccc23)ccc1F)N1CCN(C(=O)C2CC2)CC1 + Cc1c(S(C)(=O)=O)c(-c2cc(F)cc(N3CCN(c4ccc(NS(=O)(=O)c5ccc(NC(CCN6CCC(C(=O)OCCCP(=O)(O)O)CC6)CSc6ccccc6)c(S(=O)(=O)C(F)(F)F)c5)cc4)CC3)c2)c(-c2ccc(Cl)cc2)n1C(C)C is less than 60%?
Solution: Met

Problem: Could you please tell me whether viability, T/C recorded for C=C(F)C(=O)N1CCN(c2nc(OCC3CCCN3C)nc3c2CCN(c2cccc4cccc(Cl)c24)C3)CC1CC#N (stereo not drawn) + Cc1c(S(C)(=O)=O)c(-c2cc(F)cc(N3CCN(c4ccc(NS(=O)(=O)c5ccc(NC(CCN6CCC(C(=O)OCCCP(=O)(O)O)CC6)CSc6ccccc6)c(S(=O)(=O)C(F)(F)F)c5)cc4)CC3)c2)c(-c2ccc(Cl)cc2)n1C(C)C is less than 60%?
Solution: Met

Problem: Could you please tell me whether viability, T/C recorded for C=C(F)C(=O)N1CCN(c2nc(OCC3CCCN3C)nc3c2CCN(c2cccc4cccc(Cl)c24)C3)CC1CC#N (stereo not drawn) + CNC(C)C(=O)NC1CN(S(=O)(=O)c2cccc(S(=O)(=O)N3CCC4CCC(C(=O)NC(c5ccccc5)c5ccccc5)N4C(=O)C(NC(=O)C(C)NC)C3)c2)CCC2CCC(C(=O)NC(c3ccccc3)c3ccccc3)N2C1=O is less than 60%?
Solution: Not met

Problem: Could you please tell me whether viability, T/C recorded for CCN1CCN(Cc2ccc(Nc3ncc(F)c(-c4cc(F)c5nc(C)n(C(C)C)c5c4)n3)nc2)CC1 + CNC(C)C(=O)NC1CN(S(=O)(=O)c2cccc(S(=O)(=O)N3CCC4CCC(C(=O)NC(c5ccccc5)c5ccccc5)N4C(=O)C(NC(=O)C(C)NC)C3)c2)CCC2CCC(C(=O)NC(c3ccccc3)c3ccccc3)N2C1=O is less than 60%?
Solution: Not met

Problem: Could you please tell me whether viability, T/C recorded for C#Cc1c(F)ccc2cc(O)cc(-c3ncc4c(N5CC6CCC(C5)N6)nc(OCC56CCCN5CC(F)C6)nc4c3F)c12 (stereo not drawn) + Cc1c(S(C)(=O)=O)c(-c2cc(F)cc(N3CCN(c4ccc(NS(=O)(=O)c5ccc(NC(CCN6CCC(C(=O)OCCCP(=O)(O)O)CC6)CSc6ccccc6)c(S(=O)(=O)C(F)(F)F)c5)cc4)CC3)c2)c(-c2ccc(Cl)cc2)n1C(C)C is less than 60%?
Solution: Met

---

- System: 521955-158-R6-J3-PDC complex spheroid growth, % test/control
- assay_text: Anticancer human tumor 521955-158-R6-J3-PDC cell line growth inhibition [Asc]; active = viability on the fitted dose curve at most 10% of control; inactive = the rest;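 note: spheroids exposed to compounds for 7 days; 100% = DMSO vehicle control wells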
- test_conditions: second compound 10 µM; first compound 0.0316 µM
Please answer using one outcome listed in true (1) = active, false (0) = inactive

>  <compound>
C=C(F)C(=O)N1CCN(c2nc(OCC3CCCN3C)nc3c2CCN(c2cccc4cccc(Cl)c24)C3)CC1CC#N (stereo not given) + Cc1c(S(C)(=O)=O)c(-c2cc(F)cc(N3CCN(c4ccc(NS(=O)(=O)c5ccc(NC(CCN6CCC(C(=O)OCCCP(=O)(O)O)CC6)CSc6ccccc6)c(S(=O)(=O)C(F)(F)F)c5)cc4)CC3)c2)c(-c2ccc(Cl)cc2)n1C(C)C

>  <label>
false (0)

$$$$
>  <compound>
Cn1ncnc1[C@H]1c2n[nH]c(=O)c3cc(F)cc(c23)N[C@@H]1c1ccc(F)cc1 + Cc1c(S(C)(=O)=O)c(-c2cc(F)cc(N3CCN(c4ccc(NS(=O)(=O)c5ccc(NC(CCN6CCC(C(=O)OCCCP(=O)(O)O)CC6)CSc6ccccc6)c(S(=O)(=O)C(F)(F)F)c5)cc4)CC3)c2)c(-c2ccc(Cl)cc2)n1C(C)C

>  <label>
false (0)

$$$$
>  <compound>
CNC(C)C(=O)NC1CN(S(=O)(=O)c2cccc(S(=O)(=O)N3CCC4CCC(C(=O)NC(c5ccccc5)c5ccccc5)N4C(=O)C(NC(=O)C(C)NC)C3)c2)CCC2CCC(C(=O)NC(c3ccccc3)c3ccccc3)N2C1=O (stereo not given) + Cc1c(S(C)(=O)=O)c(-c2cc(F)cc(N3CCN(c4ccc(NS(=O)(=O)c5ccc(NC(CCN6CCC(C(=O)OCCCP(=O)(O)O)CC6)CSc6ccccc6)c(S(=O)(=O)C(F)(F)F)c5)cc4)CC3)c2)c(-c2ccc(Cl)cc2)n1C(C)C

>  <label>
true (1)

$$$$

Problem: Short answer needed: outcome of this test for NC1CCC(NC2CC2c2ccccc2)CC1 (stereo not given) + Cc1c(S(C)(=O)=O)c(-c2cc(F)cc(N3CCN(c4ccc(NS(=O)(=O)c5ccc(NC(CCN6CCC(C(=O)OCCCP(=O)(O)O)CC6)CSc6ccccc6)c(S(=O)(=O)C(F)(F)F)c5)cc4)CC3)c2)c(-c2ccc(Cl)cc2)n1C(C)C ?
Solution: false (0)

Problem: Short answer needed: outcome of this test for C=CC(=O)N1CCN(c2nc(=O)n(-c3c(C)ccnc3C(C)C)c3nc(-c4c(O)cccc4F)c(F)cc23)C(C)C1 (stereo not given) + Cc1c(S(C)(=O)=O)c(-c2cc(F)cc(N3CCN(c4ccc(NS(=O)(=O)c5ccc(NC(CCN6CCC(C(=O)OCCCP(=O)(O)O)CC6)CSc6ccccc6)c(S(=O)(=O)C(F)(F)F)c5)cc4)CC3)c2)c(-c2ccc(Cl)cc2)n1C(C)C ?
Solution: false (0)

Problem: Short answer needed: outcome of this test for O=C(c1ccc(F)c(F)c1Nc1ccc(I)cc1F)N1CC(O)([C@@H]2CCCCN2)C1 + Cc1c(S(C)(=O)=O)c(-c2cc(F)cc(N3CCN(c4ccc(NS(=O)(=O)c5ccc(NC(CCN6CCC(C(=O)OCCCP(=O)(O)O)CC6)CSc6ccccc6)c(S(=O)(=O)C(F)(F)F)c5)cc4)CC3)c2)c(-c2ccc(Cl)cc2)n1C(C)C ?
Solution: true (1)

Problem: Short answer needed: outcome of this test for C#Cc1c(F)ccc2cc(O)cc(-c3ncc4c(N5CC6CCC(C5)N6)nc(OCC56CCCN5CC(F)C6)nc4c3F)c12 (stereo not given) + Cc1c(S(C)(=O)=O)c(-c2cc(F)cc(N3CCN(c4ccc(NS(=O)(=O)c5ccc(NC(CCN6CCC(C(=O)OCCCP(=O)(O)O)CC6)CSc6ccccc6)c(S(=O)(=O)C(F)(F)F)c5)cc4)CC3)c2)c(-c2ccc(Cl)cc2)n1C(C)C ?
Solution: true (1)

Problem: Short answer needed: outcome of this test for O=C(c1cc(Cc2n[nH]c(=O)c3ccccc23)ccc1F)N1CCN(C(=O)C2CC2)CC1 + Cc1c(S(C)(=O)=O)c(-c2cc(F)cc(N3CCN(c4ccc(NS(=O)(=O)c5ccc(NC(CCN6CCC(C(=O)OCCCP(=O)(O)O)CC6)CSc6ccccc6)c(S(=O)(=O)C(F)(F)F)c5)cc4)CC3)c2)c(-c2ccc(Cl)cc2)n1C(C)C ?
Solution: false (0)

Problem: Short answer needed: outcome of this test for CCN1CCN(Cc2ccc(Nc3ncc(F)c(-c4cc(F)c5nc(C)n(C(C)C)c5c4)n3)nc2)CC1 + Cc1c(S(C)(=O)=O)c(-c2cc(F)cc(N3CCN(c4ccc(NS(=O)(=O)c5ccc(NC(CCN6CCC(C(=O)OCCCP(=O)(O)O)CC6)CSc6ccccc6)c(S(=O)(=O)C(F)(F)F)c5)cc4)CC3)c2)c(-c2ccc(Cl)cc2)n1C(C)C ?
Solution: false (0)

Problem: Short answer needed: outcome of this test for COc1c(OCCCN2CCOCC2)ccc2c3n(c(=NC(=O)c4cnc(N)nc4)nc12)CCN3 + Cc1c(S(C)(=O)=O)c(-c2cc(F)cc(N3CCN(c4ccc(NS(=O)(=O)c5ccc(NC(CCN6CCC(C(=O)OCCCP(=O)(O)O)CC6)CSc6ccccc6)c(S(=O)(=O)C(F)(F)F)c5)cc4)CC3)c2)c(-c2ccc(Cl)cc2)n1C(C)C ?
Solution: true (1)
